Entry source: the nanobody polyreactivity screen of Harvey et al. (2022)

Assay info: yeast display, Sf9 membrane polyspecificity reagent, FACS + sequencing; frameworks hold sequencing errors

Sequence content	polyreactivity (PSR sort gate)
QVQLVESGGGLVQAGRSLRLSCAASGRIFRGYAMGWYRPAPGIERELVAAISWSGGSTNYADSVKGRFTISRDNAKNSVYLQMNSLKPEDTEVYYCAARAYRVANAGYTYWGQGTQLTVSS	high polyreactivity
QVQLVESGGGLVQAGGSLRLSCAASGGTFRANAMGWYRQAPGKERELVAAISFRGGTTYYADSVKGRFTISRDNAKNTVYLQMNSLKPEDTAVYYCAARFLYYFRGKGYDYWGQGTQVTVSS	high polyreactivity
QVQLVESGGGLVQAGGSLRLSCAASGSTFVYNAMGWYRQAPGKEREFVAVINWSGGRTYADSVKGRFTISRDNAKNTVYLQMNSLKPEDTAVYYCNAERRTYRVALQYRRYDYWGQGTQVTVSS	high polyreactivity
QVQLVESGGGLVQAGGSLRLSCAASGLIFGRYAMGWYRQAPGKERELVAAISSSGVRTYYADSVKGRFTISRDNAKNTVYLQMNSLKPEDTAVSYCAAAYWSSREDTVIKSYYWGQGTQVTVSS	high polyreactivity
QVQLVESGGGLVQAGGSLRLSCAASGSTFGTNAMGWYRQAPGKERELVAAISTGGSTYYADSVKGRFTISRDNAKNTVYLQMNSLKPEDNAVYYCAALADYVRRASDYWGQGTQVTVSS	low polyreactivity
QVQLVESGGGLVQAGGSLSLSCAASGRMFLRYAMGWYRQAPGKERELVAVITWSGGSTYYADSVKGRFTISRDNAKNTVYLQMNSLKPEDTAVYYCAADWYPTGFYYWGQGTQVTVSS	low polyreactivity
QVQLVESGGGLVQAGGSLRLSCASSGRILYGSAMGWYRQAPGKERALVAAISWRSGSTYYADSVKGRFTISRDNAKNTVYLQMNSLKPEDTEVYYCAAGYGGYPGGYYWGQGTQVTVSS	high polyreactivity
QVQLVESGGGLVQAGGRLRLSCAASGYTFSIYDMGWYRPAPGKERELVAAISWSGGSTYYADSVKGRFTISRDHAKNTVYLQMNSLKPEDTAVYYCAAKRHGSEVGRGRDYWGQGTQVTVSS	high polyreactivity

###

Assay info: yeast display, Sf9 membrane polyspecificity reagent, FACS + sequencing; frameworks hold sequencing errors
Observation type: polyreactivity (PSR sort gate)

Sequence content	Observation type	Recorded measurement
QVQLVESGGGLVQAGGTLRLSCASSGRIFYHYAMGWDRQAPGKERELVAAISTHTGTTYYADSVKGRFTISRDNAKNTVYLQMNSLKPEDTAVYYCAKRSRYGYGKSYDYWGQGTQVTVST	polyreactivity (PSR sort gate)	high polyreactivity
QVQLVESGGGLVQAGVSLRISCAASGGTLNGYAMGWYRQSPGKERELVAVITSGGSTNYADSVKGLFTISRDNAKNTVYLQMNSLKPEDTAVYYCAVRPYELHRLADQPGGDDYWGQGTQVTVSS	polyreactivity (PSR sort gate)	low polyreactivity
QVQLVESGGGLVQAGGSLRLSCAASGIFLVYAMGWYRQAPGKERELVAAIRSDASTNYADSVKWRFTISRDNAKKTVYLQMNILKPEDSAVYYCNTAQLVSDEFDYWGQGTQVTVSS	polyreactivity (PSR sort gate)	low polyreactivity
QVQLVESGGGLVQAGGSLRLSCAASGRIFYYNAMGWYRQAPGKERELVAAITSGGSTNYADSVKGRFTISPDNAKNTVYLQMNSLKPEDTAVYYCNARRYGSPRSEVHYDYCGQGTQVTVSS	polyreactivity (PSR sort gate)	low polyreactivity
QVQLVESGGGLVQAGGSLRLSCAASGRIFGWYTMGWYRQAPGKERELVADINFGGSTYYADSVKGRFTISRDNAKNTVYLQMNSLTPEDTAVYYCNADYSVYIIADEYDYCGQGTQVTVSS	polyreactivity (PSR sort gate)	low polyreactivity
QVQLVESVGGLVQAGGSLRLSCAASGIILLYYALGWYRQAPGKERELVAAITTSGGRTYYADSVKGRFTISRDNAKNTVYLQMNSLKPEDTAVYYCAASTQGTYYPYKRYDYWGQGTQVTVSS	polyreactivity (PSR sort gate)	high polyreactivity
QVQLVESGGGLLQAGGSLRLSCAASGFTFRVNAMGWYRQAPGKERELVASITVSDARTYYADSVKGRFTISRDNAKNTVYLQMNSLKPEDTAVYYCAADYKGAFTTDWSSEYEYWGQGTQVTVSS	polyreactivity (PSR sort gate)	low polyreactivity
QVQLVESGGGLVQAGGSLRLSCAASGSTFSVYAMGWYRQAPGKEMELVATITWNGGRTYYADSVKGRFTISRDNAKNTVYLQMNSLKPEDTAVYYCASPWLKPGNGIYGGYGYWGQGTQVTVSS	polyreactivity (PSR sort gate)	high polyreactivity
